assay: Emulsion stability testing of nonionic emulsifiers, aromatic solvent series; type: physicochemical; conditions: Bifenthrin 240 g/L in Aromatic 100, 34 ppm water
Task for the reader: assign each of the following compounds its reported 24 h separation, amount.
Numbers only, in mL.

| COMPOUND | RESULT_UNITS | 24 h separation, amount |
| --- | --- | --- |
| CCC=CCCCCCCCCOCCOCCOCCOCCOCCO (mixture of isomers) | mL | 9 |
| C=CCCCCCCCCOCCOCCOCCOCCOCCOCCOCCO | mL | 5.8 |
| CCC=CCCCCCCCCOCCOCCOCCOCCOCCOCCOCCO (mixture of isomers) | mL | 4.9 |

Kindly give each listed record's 24 h separation, amount.
1. C=CCCCCCCCCOCCOCCOCCO
2. CCC=CCCCCCCCCOCCOCCOCCO (mixture of isomers)

a:
[6.5, 6.8]

====

test: Emulsion stability testing of nonionic emulsifiers, aromatic solvent series; assay type: physicochemical; conditions: Bifenthrin 240 g/L in Aromatic 100, 1000 ppm water
MEASURED_ATTRIBUTE: 1 h separation, amount (mL)
Give bare numbers, in mL.

Illustrative cases are given below, each with its answer.
| MOLECULE | RESULT_UNITS | 1 h separation, amount |
| --- | --- | --- |
| CCC=CCCCCCCCCOCCOCCOCCOCCOCCOCCOCCOCCOCCOCCOCCOCCOCCOCCOCCO (mixture of isomers) | mL | 5.5 |
| C=CCCCCCCCCOCCOCCOCCO | mL | 6 |
| C=CCCCCCCCCOCCO | mL | 6 |

Kindly give each listed record's 1 h separation, amount.
1. CCC=CCCCCCCCCOCCOCCOCCO (mixture of isomers)
2. C=CCCCCCCCCOCCOCCOCCOCCOCCOCCOCCOCCOCCOCCOCCOCCOCCOCCOCCO

a:
4.5
6

q: Look up 1 h separation, amount: CCC=CCCCCCCCCOCCO (mixture of isomers)
a: 5.2

====

assay: Emulsion stability testing of nonionic emulsifiers, aromatic solvent series; type: physicochemical; settings: 2,4-D ester 480 g/L in Exxsol D-110, 1000 ppm water
MEASURED_ATTRIBUTE: 24 h separation, amount

| MOLECULE | 24 h separation, amount |
| --- | --- |
| CCC=CCCCCCCCCOCCOCCOCCOCCOCCO (mixture of isomers) [A12-10] | 0.75 O, 4.3 CO |

Kindly give each listed record's 24 h separation, amount.
1. C=CCCCCCCCCOCCOCCOCCOCCOCCOCCOCCOCCOCCOCCOCCOCCOCCOCCOCCO [A10-16]
2. C=CCCCCCCCCOCCOCCOCCOCCOCCOCCOCCO [A10-13]

a:
3.9 mL
1 O, 4 CO

Kindly give each listed record's 24 h separation, amount.
1. C=CCCCCCCCCOCCOCCOCCOCCOCCO [A10-10]
2. C=CCCCCCCCCOCCOCCOCCO [A10-7]
3. C=CCCCCCCCCOCCO [A10-4]
4. CCC=CCCCCCCCCOCCOCCOCCO (mixture of isomers) [A12-7]
5. CCC=CCCCCCCCCOCCOCCOCCOCCOCCOCCOCCO (mixture of isomers) [A12-13]
6. CCC=CCCCCCCCCOCCOCCOCCOCCOCCOCCOCCOCCOCCOCCOCCOCCOCCOCCOCCO (mixture of isomers) [A12-16]

a:
1. 1 O, 4 CO
2. 4 mL
3. 4 mL
4. 0.8 O, 3.3 CO
5. 5 mL
6. 4 mL

q: Look up 24 h separation, amount: CCC=CCCCCCCCCOCCO (mixture of isomers) [A12-4]
a: 4.5 mL

====

assay: Emulsion stability testing of nonionic emulsifiers, Hallcomid solvent series; type: physicochemical; set-up: key: C = creamy; CO = creamy oil; O = oil; GC = gritty cream; NS = no separation; OC = oily cream; conditions: 2,4-D diester 480 g/L in Hallcomid M-8-10, 1000 ppm water
MEASURED_ATTRIBUTE: 1 h separation, appearance

Illustrative cases are given below, each with its answer.
| MOLECULE | REPORTED_MEASUREMENT |
| --- | --- |
| C=CCCCCCCCCOCCOCCOCCO | C |
| C=CCCCCCCCCOCCOCCOCCOCCOCCOCCOCCOCCOCCOCCOCCOCCOCCOCCOCCO | C |
| CCC=CCCCCCCCCOCCOCCOCCOCCOCCO (mixture of isomers) | C |
| CCC=CCCCCCCCCOCCO (mixture of isomers) | C |
| C=CCCCCCCCCOCCOCCOCCOCCOCCO | C |
| CCC=CCCCCCCCCOCCOCCOCCOCCOCCOCCOCCOCCOCCOCCOCCOCCOCCOCCOCCO (mixture of isomers) | C |
| C=CCCCCCCCCOCCO | C |
| CCC=CCCCCCCCCOCCOCCOCCO (mixture of isomers) | C |

Kindly give each listed record's 1 h separation, appearance.
1. C=CCCCCCCCCOCCOCCOCCOCCOCCOCCOCCO
2. CCC=CCCCCCCCCOCCOCCOCCOCCOCCOCCOCCO (mixture of isomers)

a:
["C", "C"]

====

assay: Emulsion stability testing of nonionic emulsifiers, Hallcomid solvent series; assay type: physicochemical; parameters: key: C = creamy; CO = creamy oil; O = oil; GC = gritty cream; NS = no separation; OC = oily cream; details: Tebuconazole 360 g/L in Hallcomid M-8-10, 1000 ppm water
MEASURED_ATTRIBUTE: 24 h separation, appearance

Illustrative cases are given below, each with its answer.
| COMPOUND | MEASURED_ATTRIBUTE | REPORTED_MEASUREMENT |
| --- | --- | --- |
| CCC=CCCCCCCCCOCCOCCOCCO (mixture of isomers) [A12-7] | 24 h separation, appearance | C |
| CCC=CCCCCCCCCOCCO (mixture of isomers) [A12-4] | 24 h separation, appearance | C |
| CCC=CCCCCCCCCOCCOCCOCCOCCOCCO (mixture of isomers) [A12-10] | 24 h separation, appearance | C |
| C=CCCCCCCCCOCCOCCOCCOCCOCCOCCOCCOCCOCCOCCOCCOCCOCCOCCOCCO [A10-16] | 24 h separation, appearance | C |

Attention now turns to another entry.
q: Look up 24 h separation, appearance: C=CCCCCCCCCOCCO [A10-4]
a: C

====

test: Emulsion stability testing of nonionic emulsifiers, Hallcomid solvent series; assay type: physicochemical; parameters: key: G = good; F = fair; P = poor; conditions: Tebuconazole 360 g/L in Hallcomid M-8-10, 1000 ppm water
MEASURED_ATTRIBUTE: Spon. (spontaneity)

Illustrative cases are given below, each with its answer.
| COMPOUND | MEASURED_ATTRIBUTE | REPORTED_MEASUREMENT |
| --- | --- | --- |
| C=CCCCCCCCCOCCO [A10-4] | Spon. (spontaneity) | F |
| CCC=CCCCCCCCCOCCOCCOCCOCCOCCOCCOCCO (mixture of isomers) [A12-13] | Spon. (spontaneity) | G |
| CCC=CCCCCCCCCOCCOCCOCCOCCOCCOCCOCCOCCOCCOCCOCCOCCOCCOCCOCCO (mixture of isomers) [A12-16] | Spon. (spontaneity) | F |
| C=CCCCCCCCCOCCOCCOCCOCCOCCOCCOCCO [A10-13] | Spon. (spontaneity) | F |

Attention now turns to another entry.
q: Look up Spon. (spontaneity): CCC=CCCCCCCCCOCCOCCOCCO (mixture of isomers) [A12-7]
a: F

====

Task for the reader: assign each of the following molecules its reported 24 h separation, amount.
test: Emulsion stability testing of nonionic emulsifiers, aromatic solvent series; format: physicochemical; settings: Tebuconazole 360 g/L in N-methyl-2-pyrrolidone, 34 ppm water
Answers are plain numbers, in mL.

Illustrative cases are given below, each with its answer.
| MOLECULE | RESULT_UNITS | REPORTED_MEASUREMENT |
| --- | --- | --- |
| CCC=CCCCCCCCCOCCOCCOCCO (mixture of isomers) | mL | 3 |
| C=CCCCCCCCCOCCOCCOCCOCCOCCOCCOCCOCCOCCOCCOCCOCCOCCOCCOCCO | mL | 3.5 |
| CCC=CCCCCCCCCOCCO (mixture of isomers) | mL | 2.5 |

q: Look up 24 h separation, amount: CCC=CCCCCCCCCOCCOCCOCCOCCOCCO (mixture of isomers)
a: 4

====

experiment: Emulsion stability testing of nonionic emulsifiers, aromatic solvent series; type: physicochemical; parameters: key: C = creamy; CO = creamy oil; O = oil; GC = gritty cream; NS = no separation; OC = oily cream; conditions: Tebuconazole 360 g/L in N-methyl-2-pyrrolidone, 34 ppm water
MEASURED_ATTRIBUTE: 1 h separation, appearance

Illustrative cases are given below, each with its answer.
| COMPOUND | 1 h separation, appearance |
| --- | --- |
| C=CCCCCCCCCOCCO | GC |
| C=CCCCCCCCCOCCOCCOCCO | GC |
| C=CCCCCCCCCOCCOCCOCCOCCOCCOCCOCCOCCOCCOCCOCCOCCOCCOCCOCCO | C |
| C=CCCCCCCCCOCCOCCOCCOCCOCCO | CO |
| CCC=CCCCCCCCCOCCOCCOCCOCCOCCOCCOCCO (mixture of isomers) | C |

Kindly give each listed record's 1 h separation, appearance.
1. CCC=CCCCCCCCCOCCOCCOCCOCCOCCO (mixture of isomers)
2. CCC=CCCCCCCCCOCCOCCOCCO (mixture of isomers)

a:
1. C
2. C

Kindly give each listed record's 1 h separation, appearance.
1. CCC=CCCCCCCCCOCCO (mixture of isomers)
2. CCC=CCCCCCCCCOCCOCCOCCOCCOCCOCCOCCOCCOCCOCCOCCOCCOCCOCCOCCO (mixture of isomers)

a:
C
CO
